Recorded values, source patent US11814444B2.

- Experimental Target: human PCSK9 / human LDLR EGFa domain interaction (Homo sapiens)
- Sequence (Q8NBP7 153-692): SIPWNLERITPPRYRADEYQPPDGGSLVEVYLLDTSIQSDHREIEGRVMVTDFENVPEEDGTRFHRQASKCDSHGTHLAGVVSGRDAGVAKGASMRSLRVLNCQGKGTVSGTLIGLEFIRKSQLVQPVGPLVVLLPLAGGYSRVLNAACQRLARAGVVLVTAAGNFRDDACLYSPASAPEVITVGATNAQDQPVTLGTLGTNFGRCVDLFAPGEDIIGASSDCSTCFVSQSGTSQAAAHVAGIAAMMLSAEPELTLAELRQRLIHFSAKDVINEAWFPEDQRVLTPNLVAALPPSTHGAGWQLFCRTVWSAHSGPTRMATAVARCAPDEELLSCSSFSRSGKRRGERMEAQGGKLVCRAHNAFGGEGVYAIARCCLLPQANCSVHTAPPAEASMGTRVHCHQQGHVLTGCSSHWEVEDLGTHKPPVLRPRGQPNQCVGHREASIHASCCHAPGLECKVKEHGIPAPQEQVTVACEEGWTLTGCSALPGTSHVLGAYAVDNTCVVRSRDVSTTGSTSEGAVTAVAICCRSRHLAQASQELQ
- Sequence (Q8NBP7 31-152 partner limits assumed): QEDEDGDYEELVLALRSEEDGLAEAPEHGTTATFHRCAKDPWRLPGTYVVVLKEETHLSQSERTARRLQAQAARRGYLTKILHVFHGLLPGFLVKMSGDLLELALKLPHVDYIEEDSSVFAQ
- Test Details: TR-FRET assay of inhibition of the PCSK9-LDLR protein-protein interaction
- Condition Info: 20 nM avitag-biotinylated human PCSK9, 20 nM his-tagged human LDLR EGFa domain, 2 hours, room temperature
Numbered stars: 1 amine (or outer) side, 2 acyl side, 3 side chain; on linkers, the order of the positions; unused ones are H or OH. Bridge positions count the residues as written; N and C are the ends. Square brackets hold non-standard residues; d marks the D form. Peptide text beside a SMILES is read from it. Trp(7-aza) = N[C@@H](Cc1c[nH]c2ncccc12)C(=O)O; mXylylene = c1cc(C[*:1])cc(C[*:2])c1; Tle = CC(C)(C)[C@H](N)C(=O)O; Nva = CCC[C@H](N)C(=O)O; Mpa = O=C(O)CCS
Measured Attribute: IC50

Q. Please look up its IC50: CCC[C@@H]1NC(=O)[C@H](Cc2ccc(O)cc2)NC(=O)[C@H](CCC(=O)O)NC(=O)[C@H](CCC)NC(=O)[C@H](Cc2c[nH]c3ncccc23)NC(=O)[C@H]([C@@H](C)O)NC(=O)[C@H](Cc2c[nH]cn2)NC(=O)[C@H](Cc2ccc(O)cc2)NC(=O)[C@H](C(C)(C)C)NC(=O)CCSCc2cccc(c2)CSC[C@@H](C(N)=O)NC(=O)[C@H](Cc2c[nH]cn2)NC1=O [Compound 247] ([Mpa][Tle]YHT[Trp(7-aza)][Nva]EY[Nva]HC-NH2; linker 1-12 via mXylylene)
A. 100 to 1000 nM
